System: DU-4475
assay.info: normalised response (% of control), CellTox Green; higher = less cell death (100 = DMSO, 0 = benzethonium chloride kill control)
condition.details: incubation time: 72 h
value.type: normalised response (%)

compound	value.type	reported.value
O=C1c2c(O)ccc(O)c2C(=O)c2c(NCCNCCO)ccc(NCCNCCO)c21 [Mitoxantrone] (1000 nM)	normalised response	94.2
C[C@]12O[C@H](C[C@]1(O)CO)n1c3ccccc3c3c4c(c5c6ccccc6n2c5c31)CNC4=O [Lestaurtinib] (10 nM)	normalised response	94.2
Cc1ccc(Nc2nccc(N(C)c3ccc4c(C)n(C)nc4c3)n2)cc1S(N)(=O)=O [Pazopanib] (10000 nM)	normalised response	104
Cn1cc(CNCC2CCN(c3ncc(C(=O)NO)cn3)CC2)c2ccccc21 [Quisinostat] (100 nM)	normalised response	82.1

----------
Test system: MDA-MB-468
condition.details: 72 h
value.type: EC50, CellTiter-Blue viability (nM)

cpd.smiles	reported.value
Cn1cc(CNCC2CCN(c3ncc(C(=O)NO)cn3)CC2)c2ccccc21	38.9
CS(=O)(=O)N1CCN(Cc2cc3nc(-c4cccc5[nH]ncc45)nc(N4CCOCC4)c3s2)CC1	1650
Nc1ccccc1NC(=O)c1ccc(CNc2nccc(-c3cccnc3)n2)cc1	1930
O=C1c2c(O)ccc(O)c2C(=O)c2c(NCCNCCO)ccc(NCCNCCO)c21	74.8

----------
Test system: MDA-MB-453
assay.info: normalised response (% of control), CellTox Green; higher = less cell death (100 = DMSO, 0 = benzethonium chloride kill control)
condition.details: incubation time: 72 h
value.type: normalised response (%)

molecule	assay.system	reading.unit	reported.value
O=C1c2c(O)ccc(O)c2C(=O)c2c(NCCNCCO)ccc(NCCNCCO)c21 [Mitoxantrone] (100 nM)	MDA-MB-453	%	104
CC[C@@]1(O)C(=O)OCc2c1cc1n(c2=O)Cc2cc3c(CN(C)C)c(O)ccc3nc2-1 [Topotecan] (100 nM)	MDA-MB-453	%	108
C[C@]12C=CC(=O)C=C1CC[C@@H]1[C@@H]2[C@@H](O)C[C@@]2(C)[C@H]1CC[C@]2(O)C(=O)CO [Prednisolone] (10000 nM)	MDA-MB-453	%	94.6
O=C(Nc1c[nH]nc1-c1nc2ccc(CN3CCOCC3)cc2[nH]1)NC1CC1 [AT9283] (1000 nM)	MDA-MB-453	%	101
C[C@]12C=CC(=O)C=C1CC[C@@H]1[C@@H]2[C@@H](O)C[C@@]2(C)[C@H]1CC[C@]2(O)C(=O)CO [Prednisolone] (100 nM)	MDA-MB-453	%	104
Cc1cccc(-c2nn3c(c2-c2ccnc4ccc(C(N)=O)cc24)CCC3)n1 [Galunisertib] (100 nM)	MDA-MB-453	%	114
CNC(=O)c1cc(Oc2ccc(NC(=O)Nc3ccc(Cl)c(C(F)(F)F)c3)cc2)ccn1 [Sorafenib] (100 nM)	MDA-MB-453	%	95.1
Nc1cccc2c1CN(C1CCC(=O)NC1=O)C2=O (stereo not drawn) [Lenalidomide] (100 nM)	MDA-MB-453	%	100
COc1cc(CCc2cc(NC(=O)c3ccc(N4CC(C)NC(C)C4)cc3)n[nH]2)cc(OC)c1 (stereo not drawn) [AZD4547] (1000 nM)	MDA-MB-453	%	103
CO[C@@H](C(=O)N1Cc2[nH]nc(NC(=O)c3ccc(N4CCN(C)CC4)cc3)c2C1)c1ccccc1 [Danusertib] (10000 nM)	MDA-MB-453	%	112
Cc1c(CN2CCN(C(=O)[C@H](C)O)CC2)sc2c(N3CCOCC3)nc(-c3cnc(N)nc3)nc12 [GDC-0980] (100 nM)	MDA-MB-453	%	98
O=C(Nc1c[nH]nc1-c1nc2ccc(CN3CCOCC3)cc2[nH]1)NC1CC1 [AT9283] (10 nM)	MDA-MB-453	%	103
Cc1ccc(Nc2nccc(N(C)c3ccc4c(C)n(C)nc4c3)n2)cc1S(N)(=O)=O [Pazopanib] (100 nM)	MDA-MB-453	%	97.4
O=C(NC[C@H](O)CO)c1ccncc1Nc1ccc(I)cc1F [Pimasertib] (1000 nM)	MDA-MB-453	%	107
CCC/C=C/C=C/C(=O)O[C@H]1/C(=C/C(=O)OC)C[C@H]2C[C@H]([C@@H](C)O)OC(=O)C[C@H](O)C[C@@H]3C[C@H](OC(C)=O)C(C)(C)[C@](O)(C[C@@H]4C/C(=C/C(=O)OC)C[C@H](/C=C/C(C)(C)[C@]1(O)O2)O4)O3 [Bryostatin 1] (10 nM)	MDA-MB-453	%	99.9
Nc1cccc2c1CN(C1CCC(=O)NC1=O)C2=O (stereo not drawn) [Lenalidomide] (10000 nM)	MDA-MB-453	%	99.8
Cc1c(CN2CCN(C(=O)[C@H](C)O)CC2)sc2c(N3CCOCC3)nc(-c3cnc(N)nc3)nc12 [GDC-0980] (10000 nM)	MDA-MB-453	%	86.7
c1cc(CN2CCCNCCNCCCNCC2)ccc1CN1CCCNCCNCCCNCC1 [Plerixafor] (10000 nM)	MDA-MB-453	%	80.5
Cc1c(Cn2c(C)nc3c(C(=O)O)cc(N4CCOCC4)cc32)cccc1C(F)(F)F (100 nM)	MDA-MB-453	%	111
Nc1cccc2c1CN(C1CCC(=O)NC1=O)C2=O (stereo not drawn) [Lenalidomide] (1000 nM)	MDA-MB-453	%	103
COc1cc(CCc2cc(NC(=O)c3ccc(N4CC(C)NC(C)C4)cc3)n[nH]2)cc(OC)c1 (stereo not drawn) [AZD4547] (10 nM)	MDA-MB-453	%	104
CO[C@@H](C(=O)N1Cc2[nH]nc(NC(=O)c3ccc(N4CCN(C)CC4)cc3)c2C1)c1ccccc1 [Danusertib] (1000 nM)	MDA-MB-453	%	84.9
CC/C(=C(\c1ccc(O)cc1)c1ccc(OCCN(C)C)cc1)c1ccccc1 [4-hydroxytamoxifen] (1000 nM)	MDA-MB-453	%	111

----------
System: MDA-MB-453
assay.info: normalised response (% of control), CellTiter-Glo; higher = more viable cells (100 = DMSO, 0 = benzethonium chloride kill control)
condition.details: incubation time: 72 h
Label NOT MET if normalised response falls below 90%; label MET in every other case.

compound	group.label
Cc1cccc(-c2nn3c(c2-c2ccnc4ccc(C(N)=O)cc24)CCC3)n1 [Galunisertib] (1000 nM)	MET
C[C@]12O[C@H](C[C@]1(O)CO)n1c3ccccc3c3c4c(c5c6ccccc6n2c5c31)CNC4=O [Lestaurtinib] (1000 nM)	NOT MET
Cc1nc(Nc2ncc(C(=O)Nc3c(C)cccc3Cl)s2)cc(N2CCN(CCO)CC2)n1 [Dasatinib] (1000 nM)	NOT MET
CC[C@@]1(O)C(=O)OCc2c1cc1n(c2=O)Cc2cc3c(CN(C)C)c(O)ccc3nc2-1 [Topotecan] (10000 nM)	NOT MET
c1cc(CN2CCCNCCNCCCNCC2)ccc1CN1CCCNCCNCCCNCC1 [Plerixafor] (10000 nM)	NOT MET
CO[C@@H](C(=O)N1Cc2[nH]nc(NC(=O)c3ccc(N4CCN(C)CC4)cc3)c2C1)c1ccccc1 [Danusertib] (10000 nM)	MET
Nc1ccccc1NC(=O)c1ccc(CNc2nccc(-c3cccnc3)n2)cc1 [Mocetinostat] (10000 nM)	NOT MET

----------
Test system: MDA-MB-468
assay.info: normalised response (% of control), CellTiter-Glo; higher = more viable cells (100 = DMSO, 0 = benzethonium chloride kill control)
condition.details: incubation time: 72 h

compound	reading.unit	normalised response
Cc1c(CN2CCN(C(=O)[C@H](C)O)CC2)sc2c(N3CCOCC3)nc(-c3cnc(N)nc3)nc12 [GDC-0980] (100 nM)	%	95.9
CCC/C=C/C=C/C(=O)O[C@H]1/C(=C/C(=O)OC)C[C@H]2C[C@H]([C@@H](C)O)OC(=O)C[C@H](O)C[C@@H]3C[C@H](OC(C)=O)C(C)(C)[C@](O)(C[C@@H]4C/C(=C/C(=O)OC)C[C@H](/C=C/C(C)(C)[C@]1(O)O2)O4)O3 [Bryostatin 1] (1 nM)	%	99.8
CNC(=O)c1cc(Oc2ccc(NC(=O)Nc3ccc(Cl)c(C(F)(F)F)c3)cc2)ccn1 [Sorafenib] (10 nM)	%	115
O=C(Nc1c[nH]nc1-c1nc2ccc(CN3CCOCC3)cc2[nH]1)NC1CC1 [AT9283] (10 nM)	%	96.6
C[C@]12C=CC(=O)C=C1CC[C@@H]1[C@@H]2[C@@H](O)C[C@@]2(C)[C@H]1CC[C@]2(O)C(=O)CO [Prednisolone] (100 nM)	%	109
CC(=O)OC[C@H]1O[C@@H]([S-])[C@H](OC(C)=O)[C@@H](OC(C)=O)[C@@H]1OC(C)=O.CCP(CC)CC.[Au+] [Auranofin] (25 nM)	%	103
c1cc(CN2CCCNCCNCCCNCC2)ccc1CN1CCCNCCNCCCNCC1 [Plerixafor] (100 nM)	%	97.6
Cn1cc(CNCC2CCN(c3ncc(C(=O)NO)cn3)CC2)c2ccccc21 [Quisinostat] (10 nM)	%	91.2
CC(C)N(CCCNC(=O)Nc1ccc(C(C)(C)C)cc1)C[C@H]1O[C@@H](n2cc(Br)c3c(N)ncnc32)[C@H](O)[C@@H]1O [SGC0946] (100 nM)	%	93.8
COc1nc(N)nc2c1ncn2[C@@H]1O[C@H](CO)[C@@H](O)[C@@H]1O [Nelarabine] (100 nM)	%	95.6
